The measured values listed here are drawn from patent US9777003B2.

# measuredTarget: BRD4-BD1 (Homo sapiens (Human), UniProt O60885)
# testProtocol: BRD4 AlphaScreen assay, BRD4-BD1
# conditionContext: biotin-labeled tetra-acetylated histone H4 peptide, 75 min, room temperature, read-out: BRD4 BD-1 enzyme IC50
pIC50: −log10 of the molar value. Structures can show the parent of a compound that is named as a salt.
Recorded pIC50, one value per entry.

- molecule: "Cc1nnc2ccc3c(cc(C(=O)N[C@H]4C[C@@H](C#N)C4)n3Cc3ccccc3)n12"
  pIC50: "6.00 to 7.00"
- molecule: "CCn1ccc(-c2cc3c(ccc4nnc(C)n43)n2Cc2cc(Cl)cc(CN3CCCC3)c2)n1 [Example 189, tris(trifluoroacetate) Salt]"
  pIC50: "≥ 7.00"
- molecule: "CCC(=O)N1CC(n2ccc(-c3cc4c(ccc5nnc(C)n54)n3Cc3cccc(Cl)c3)n2)C1 [Example 163, Trifluoroacetate Salt]"
  pIC50: "≥ 7.00"
- molecule: "Cc1nnc2ccc3c(cc(-c4ccn(C5(CC#N)CNC5)n4)n3Cc3ccccc3)n12"
  pIC50: "≥ 7.00"
- molecule: "Cc1nnc2ccc3c(ccn3C(C)c3ccccc3)n12 (racemic)"
  pIC50: "6.00 to 7.00"
- molecule: "Cc1cc2c(cc(NC(N)=O)c3nnc(C)n32)n1Cc1cccc(F)c1"
  pIC50: "≥ 7.00"

---

pIC50: recorded values
# measuredTarget: BRD4-BD2 (Homo sapiens (Human), UniProt O60885)
# testProtocol: BRD4 AlphaScreen assay, BRD4-BD2
# conditionContext: biotin-labeled tetra-acetylated histone H4 peptide, 75 min, room temperature, read-out: BRD4 BD-2 enzyme IC50
# Description: BRD4-BD1 and BRD4-BD2 assays were conducted in white 384-well polystyrene plate in a final volume of 20 μL for BD1 and 40 μL for BD2. Inhibitors were first serially diluted in DMSO and added to the plate wells before the addition of other reaction components. The final concentration of DMSO in the assay was 1.25% (BD1) and 0.83% (BD2). […] After plate sealing, the plate was incubated in the dark at room temperature for 75 min. before reading on a PHERAstar FS plate reader (BMG Labtech). […]
pIC50: −log10 of the molar value. Where a name gives a salt, the structure may show the parent alone.
readoutKind: pIC50

- molecule: "Cc1nnc2ccc3c(cc(C(=O)NC(C)(C)C)n3Cc3cccc(Cl)c3)n12 [Example 120, Trifluoroacetate Salt]"
  result: "6.00 to 7.00"
- molecule: "Cc1cc2c(ccc3nnc(C)n32)n1Cc1ccccn1"
  result: "6.00 to 7.00"
- molecule: "Cc1cc2c(cc(NC(=O)NC(C)C)c3nnc(C)n32)n1Cc1ccccc1"
  result: "≥ 7.00"
- molecule: "Cc1cc2c(ccc3nnc(C)n32)n1Cc1cccc(CN2CCCC2)c1"
  result: "≥ 7.00"

---

Recorded pIC50 by entry
# measuredTarget: BRD4-BD1 (Homo sapiens (Human), UniProt O60885)
# testProtocol: BRD4 AlphaScreen assay, BRD4-BD1
# conditionContext: biotin-labeled tetra-acetylated histone H4 peptide, 75 min, room temperature, read-out: BRD4 BD-1 enzyme IC50
# Protocol: BRD4-BD1 and BRD4-BD2 assays were conducted in white 384-well polystyrene plate in a final volume of 20 μL for BD1 and 40 μL for BD2. Inhibitors were first serially diluted in DMSO and added to the plate wells before the addition of other reaction components. The final concentration of DMSO in the assay was 1.25% (BD1) and 0.83% (BD2). […] After plate sealing, the plate was incubated in the dark at room temperature for 75 min. before reading on a PHERAstar FS plate reader (BMG Labtech). […]
pIC50: −log10 of the molar value. Where a name gives a salt, the structure may show the parent alone.

- compound: "Cc1nnc2ccc3c(cc(-c4ccn(CCC(=O)NC(C)(C)C)n4)n3Cc3cccc(Cl)c3)n12 [Example 176, Trifluoroacetate Salt]"
  pIC50: "≥ 7.00"
- compound: "CN[C@H]1CC[C@H](Nc2cc3c(cc(C)n3Cc3ccccc3)n3c(C)nnc23)CC1 [Example 219]"
  pIC50: "≥ 7.00"
- compound: "Cc1nnc2ccc3c(cc(-c4ccn(CCC(=O)NC5COC5)n4)n3Cc3cccc(Cl)c3)n12 [Example 168, Trifluoroacetate Salt]"
  pIC50: "≥ 7.00"
